biological target: Protein cereblon/Tyrosine-protein kinase ABL1/Breakpoint cluster region protein (Homo sapiens, UniProt P00519+P11274+Q96SW2); experiment: Protac activity at CRBN/BCR-ABL in human K562 cells assessed as increase in BCR-ABL degradation at 50 nM by Western blotting analysis; assay type: cell-based
Sequence (P00519 whole entry, looked up): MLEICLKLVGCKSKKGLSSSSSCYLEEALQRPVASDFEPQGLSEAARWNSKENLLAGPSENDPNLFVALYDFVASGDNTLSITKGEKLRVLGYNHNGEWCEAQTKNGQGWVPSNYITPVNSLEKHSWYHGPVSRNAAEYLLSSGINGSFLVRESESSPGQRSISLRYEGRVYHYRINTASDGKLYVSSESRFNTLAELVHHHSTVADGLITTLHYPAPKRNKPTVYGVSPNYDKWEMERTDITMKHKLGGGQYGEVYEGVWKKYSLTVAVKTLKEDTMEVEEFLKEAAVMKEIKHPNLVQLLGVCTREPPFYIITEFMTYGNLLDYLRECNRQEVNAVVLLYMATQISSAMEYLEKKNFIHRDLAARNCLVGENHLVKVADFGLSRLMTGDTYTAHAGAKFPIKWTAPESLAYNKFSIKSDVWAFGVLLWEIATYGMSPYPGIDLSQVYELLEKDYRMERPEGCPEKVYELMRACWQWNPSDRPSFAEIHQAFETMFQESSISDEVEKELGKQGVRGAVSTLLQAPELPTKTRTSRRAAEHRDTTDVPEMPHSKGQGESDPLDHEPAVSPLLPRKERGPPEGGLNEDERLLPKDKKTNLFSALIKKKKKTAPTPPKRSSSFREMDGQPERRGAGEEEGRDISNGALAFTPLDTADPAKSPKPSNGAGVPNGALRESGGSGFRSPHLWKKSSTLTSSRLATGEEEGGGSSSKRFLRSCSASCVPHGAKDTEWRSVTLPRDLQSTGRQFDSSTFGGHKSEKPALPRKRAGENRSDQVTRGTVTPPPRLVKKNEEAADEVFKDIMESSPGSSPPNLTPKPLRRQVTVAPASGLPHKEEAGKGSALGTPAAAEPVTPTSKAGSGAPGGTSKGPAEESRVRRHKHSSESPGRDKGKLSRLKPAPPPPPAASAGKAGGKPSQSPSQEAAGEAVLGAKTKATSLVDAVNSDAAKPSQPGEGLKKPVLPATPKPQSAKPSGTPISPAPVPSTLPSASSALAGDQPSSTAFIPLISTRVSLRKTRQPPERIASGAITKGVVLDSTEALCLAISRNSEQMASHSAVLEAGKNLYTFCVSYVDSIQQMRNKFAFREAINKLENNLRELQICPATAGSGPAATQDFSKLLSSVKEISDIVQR
Sequence (P11274 whole entry, looked up): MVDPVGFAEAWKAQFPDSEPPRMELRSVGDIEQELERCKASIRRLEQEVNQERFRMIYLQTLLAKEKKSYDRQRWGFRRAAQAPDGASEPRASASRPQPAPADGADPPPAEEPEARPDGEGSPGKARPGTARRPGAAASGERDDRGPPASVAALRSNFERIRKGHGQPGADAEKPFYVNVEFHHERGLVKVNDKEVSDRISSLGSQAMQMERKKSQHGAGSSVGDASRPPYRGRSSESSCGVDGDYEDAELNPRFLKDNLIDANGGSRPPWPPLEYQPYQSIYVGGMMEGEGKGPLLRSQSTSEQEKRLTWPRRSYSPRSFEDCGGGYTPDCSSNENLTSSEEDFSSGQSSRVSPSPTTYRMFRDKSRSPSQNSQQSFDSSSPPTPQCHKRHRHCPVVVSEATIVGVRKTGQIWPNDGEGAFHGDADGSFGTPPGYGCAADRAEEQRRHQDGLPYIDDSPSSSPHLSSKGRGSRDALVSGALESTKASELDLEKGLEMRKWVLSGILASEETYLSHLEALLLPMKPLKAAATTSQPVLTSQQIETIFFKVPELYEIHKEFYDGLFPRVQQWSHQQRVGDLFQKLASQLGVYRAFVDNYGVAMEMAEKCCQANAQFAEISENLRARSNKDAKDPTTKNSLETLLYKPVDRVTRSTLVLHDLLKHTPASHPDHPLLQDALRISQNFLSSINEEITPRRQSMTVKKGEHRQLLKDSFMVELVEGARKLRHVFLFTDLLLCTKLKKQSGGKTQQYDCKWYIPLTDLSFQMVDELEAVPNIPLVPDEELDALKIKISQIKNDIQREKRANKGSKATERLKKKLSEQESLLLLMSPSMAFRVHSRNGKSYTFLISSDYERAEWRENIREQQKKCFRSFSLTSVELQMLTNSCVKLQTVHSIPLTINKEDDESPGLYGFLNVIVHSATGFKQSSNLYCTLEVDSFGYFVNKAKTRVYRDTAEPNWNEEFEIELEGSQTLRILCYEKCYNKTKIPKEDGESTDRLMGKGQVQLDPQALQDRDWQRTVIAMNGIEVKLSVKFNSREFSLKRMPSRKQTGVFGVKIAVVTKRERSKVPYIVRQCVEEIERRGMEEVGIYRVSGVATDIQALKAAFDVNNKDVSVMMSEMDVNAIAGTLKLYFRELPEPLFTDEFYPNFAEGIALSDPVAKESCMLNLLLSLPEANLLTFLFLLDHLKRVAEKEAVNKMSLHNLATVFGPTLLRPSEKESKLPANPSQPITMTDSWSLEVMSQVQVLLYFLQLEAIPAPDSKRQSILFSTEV
Sequence (Q96SW2 whole entry, looked up): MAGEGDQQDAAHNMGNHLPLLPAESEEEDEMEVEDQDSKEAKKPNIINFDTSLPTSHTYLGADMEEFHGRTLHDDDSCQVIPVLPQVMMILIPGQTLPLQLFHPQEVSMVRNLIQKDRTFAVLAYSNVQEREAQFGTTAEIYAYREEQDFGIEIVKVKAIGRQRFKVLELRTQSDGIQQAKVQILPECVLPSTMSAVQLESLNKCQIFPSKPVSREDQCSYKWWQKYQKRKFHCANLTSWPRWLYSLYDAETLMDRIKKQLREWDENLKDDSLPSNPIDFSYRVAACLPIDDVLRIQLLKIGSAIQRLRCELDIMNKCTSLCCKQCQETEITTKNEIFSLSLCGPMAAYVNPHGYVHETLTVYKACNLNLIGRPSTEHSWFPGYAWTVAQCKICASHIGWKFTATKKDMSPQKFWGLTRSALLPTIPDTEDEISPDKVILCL
ASSAY READOUT: Activity (%)

Look over these answered cases.
{"COMPOUND": "O=C1CCC(N2C(=O)c3cccc(NCCOCCOCCOCCOCCC(=O)N4CCN(c5ncc(C(=O)Nc6ccc(OC(F)(F)Cl)cc6)cc5-c5ccn[nH]5)CC4)c3C2=O)C(=O)N1 (stereo unspecified)", "ASSAY RESULT": 4.94}
{"COMPOUND": "O=C1CCC(N2C(=O)c3cccc(NCCCCC(=O)N4CCN(c5ncc(C(=O)Nc6ccc(OC(F)(F)Cl)cc6)cc5-c5ccn[nH]5)CC4)c3C2=O)C(=O)N1 (stereo unspecified)", "ASSAY RESULT": 1.94}
{"COMPOUND": "O=C1CCC(N2Cc3c(SCCOCC(=O)N4CCN(c5ncc(C(=O)Nc6ccc(OC(F)(F)Cl)cc6)cc5-c5ccn[nH]5)CC4)cccc3C2=O)C(=O)N1 (stereo unspecified)", "ASSAY RESULT": 10.2}

1: O=C1CCC(N2C(=O)c3cccc(NCCCCCC(=O)N4CCN(c5ncc(C(=O)Nc6ccc(OC(F)(F)Cl)cc6)cc5-c5ccn[nH]5)CC4)c3C2=O)C(=O)N1 (stereo unspecified)
2: O=C1CCC(N2C(=O)c3cccc(NCCCCCCC(=O)N4CCN(c5ncc(C(=O)Nc6ccc(OC(F)(F)Cl)cc6)cc5-c5ccn[nH]5)CC4)c3C2=O)C(=O)N1 (stereo unspecified)
3: O=C1CCC(N2C(=O)c3cccc(NCCOCCOCCC(=O)N4CCN(c5ncc(C(=O)Nc6ccc(OC(F)(F)Cl)cc6)cc5-c5ccn[nH]5)CC4)c3C2=O)C(=O)N1 (stereo unspecified)
Thanks in advance: please rank these 3 entries by Activity, highest to lowest. Arrange the labels as the request states and list them. 1, 2, 3
(1: 1.67%, 2: 1%, 3: -1.5%)

----------
target: Protein cereblon/Tyrosine-protein kinase ABL1/Breakpoint cluster region protein (Homo sapiens, UniProt P00519+P11274+Q96SW2); test: Protac activity at CRBN/BCR-ABL in human K562 cells assessed as increase in BCR-ABL degradation at 100 nM by Western blotting analysis; format: cell-based
ASSAY READOUT: Activity (%)

Solved cases below.
{"COMPOUND": "O=C1CCC(N2Cc3c(C#CCCCCN4CCN(c5ncc(C(=O)Nc6ccc(OC(F)(F)Cl)cc6)cc5-c5ccn[nH]5)CC4)cccc3C2=O)C(=O)N1 (stereo unspecified)", "Activity [%]": 89.1}
{"COMPOUND": "O=C1CCC(N2Cc3c(SCCCCCCN4CCN(C5CCN(c6ncc(C(=O)Nc7ccc(OC(F)(F)Cl)cc7)cc6-c6ccn[nH]6)CC5)CC4)cccc3C2=O)C(=O)N1 (stereo unspecified)", "Activity [%]": 91.2}
{"COMPOUND": "O=C1CCC(N2Cc3c(OCCCCN4CCN(c5ncc(C(=O)Nc6ccc(OC(F)(F)Cl)cc6)cc5-c5ccn[nH]5)CC4)cccc3C2=O)C(=O)N1 (stereo unspecified)", "Activity [%]": 89.2}
{"COMPOUND": "O=C1CCC(N2Cc3c(SCCCCCCN4CCN(c5ncc(C(=O)Nc6ccc(OC(F)(F)Cl)cc6)cc5-c5ccn[nH]5)CC4)cccc3C2=O)C(=O)N1 (stereo unspecified)", "Activity [%]": 40.8}

A: O=C1CCC(N2Cc3c(SCCCCN4CCN(c5ncc(C(=O)Nc6ccc(OC(F)(F)Cl)cc6)cc5-c5ccn[nH]5)CC4)cccc3C2=O)C(=O)N1 (stereo unspecified)
B: O=C1CCC(N2Cc3c(C#CCCCCCCN4CCN(C5CCN(c6ncc(C(=O)Nc7ccc(OC(F)(F)Cl)cc7)cc6-c6ccn[nH]6)CC5)CC4)cccc3C2=O)C(=O)N1 (stereo unspecified)
Kindly identify the item with the lower Activity figure among these two: A and B Let me know the label of the one you choose. B
(B: 29.9%, A: 87.8%)
